Data origin: patent US6638972B2

target: human cloned 5-HT6 receptors (Homo sapiens, UniProt P50406)
Construct: expressed in transfected cells; host or cells: HeLa cells (membrane preparation)
Sequence (P50406 whole entry): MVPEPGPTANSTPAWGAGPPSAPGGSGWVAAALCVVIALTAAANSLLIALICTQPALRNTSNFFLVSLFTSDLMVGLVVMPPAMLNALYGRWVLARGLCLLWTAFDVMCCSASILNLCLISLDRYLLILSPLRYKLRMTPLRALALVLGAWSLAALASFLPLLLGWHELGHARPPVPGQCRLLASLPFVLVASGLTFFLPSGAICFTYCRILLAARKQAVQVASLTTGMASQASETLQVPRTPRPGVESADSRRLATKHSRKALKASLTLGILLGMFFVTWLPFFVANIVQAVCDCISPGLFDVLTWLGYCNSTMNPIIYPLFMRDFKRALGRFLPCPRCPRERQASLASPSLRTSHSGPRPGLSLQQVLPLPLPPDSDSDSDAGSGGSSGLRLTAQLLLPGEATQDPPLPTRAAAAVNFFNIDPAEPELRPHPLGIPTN
assay notes: 5-HT6 binding affinity ([3H]-LSD displacement, membranes of Hela cells expressing human cloned 5-HT6 receptors)
measurement conditions: 5-HT6 Binding Ki, [3H]-LSD 3.0 nM, Hela cell membranes, 120 min at room temperature
Procedure: The affinity of test compounds for the serotonin 5-T6 receptor is evaluated in the following manner. […] The final pellet is suspended in a small volume of Tris.HCl buffer and the tissue protein content is determined in aliquots of 10-25 μl volumes. […] Binding in the presence of varying concentrations of test compound is expressed as a percentage of specific binding in the absence of test compound. […]
pKi: −log10 of the molar value.
Entries and their pKi values follow.

{"columns": ["molecule", "pKi"],
 "data": [
  ["Cc1nc(COc2ccc3c(c2)OC(CNCCCO)CC3)cs1 (centres unmarked) [Example 23]", 7.39],
  ["Cc1nc(COc2ccc3c(c2)OC(CNCCCO)CC3)cs1 (centres unmarked) [Example 24]", 6.92]
]}

---

Structures can show the parent of a compound that is named as a salt.

{"columns": ["molecule", "melting point"],
 "data": [
  ["OCCCNCc1cc2ccc(OCc3ccccc3)cc2o1", "145 to 147 °C"],
  ["O=c1ccc2ccc(OCCCNCC3CCc4ccc(OCc5ccccc5)cc4O3)cc2o1 (centres unmarked)", "63 to 68 °C"],
  ["OCCCNCC1CCc2ccc(Oc3ccccc3)cc2O1 (centres unmarked) (as salt: hydrochloride)", "178 to 179 °C"],
  ["Cc1nc(COc2ccc3c(c2)OC(CNCCCO)CC3)cs1 (centres unmarked) (as salt: HCl) [Example 24]", "123 to 128 °C"],
  ["c1ccc(CCCNCC2CCc3ccc(OCc4ccccc4)cc3O2)cc1 (centres unmarked) (as salt: hydrochloride)", "138 to 139 °C"],
  ["O=c1ccc2ccc(OCCCNCC3CCc4cc(Cl)c(OCc5ccccc5)cc4O3)cc2o1 (centres unmarked)", "92 to 95 °C"],
  ["CCCCOCCCNCC1CCc2ccc(OCc3ccccc3)cc2O1 (centres unmarked) (as salt: hydrochloride)", "130 to 132 °C"],
  ["c1ccc(CNCc2cc3ccc(OCc4ccccc4)cc3o2)cc1", "198 to 200 °C"]
]}

---

Structures can show the parent of a compound that is named as a salt.
measurement label: melting point

{"columns": ["compound", "measurement label", "endpoint value"],
 "data": [
  ["OCCCNC[C@H]1CCc2ccc(OCc3ccccc3)cc2O1", "melting point", "119 °C"],
  ["CCCCNCC1CCc2ccc(OCc3ccccc3)cc2O1 (centres unmarked) (as salt: hydrochloride)", "melting point", "150 to 151 °C"],
  ["O=[N+]([O-])c1cccc(OCCCNCC2CCc3ccc(OCc4ccccc4)cc3O2)c1 (centres unmarked)", "melting point", "82 to 87 °C"],
  ["OC[C@H](CSCc1ccccc1)NCC1CCc2ccc(OCc3ccccc3)cc2O1 (some centres unmarked)", "melting point", "59 to 65 °C"],
  ["OCCNC[C@H]1CCc2ccc(OCc3ccccc3)cc2O1", "melting point", "196 to 197 °C"]
]}

---

Structures can show the parent of a compound that is named as a salt.

{"columns": ["compound", "melting point"],
 "data": [
  ["Cc1nc(COc2ccc3c(c2)OC(CNCCCO)CC3)cs1 (stereo not drawn) (as salt: salt) [Example 23]", "94 to 102 °C"],
  ["COCCCNC[C@H]1CCc2ccc(OCc3ccccc3)cc2O1 [Example 46]", "128 to 129 °C"],
  ["OCCNCC1CCc2ccc(OCc3ccccc3)cc2O1 (stereo not drawn) (as salt: hydrochloride) [Example 9]", "200 to 201 °C"],
  ["OCCCNCC1Cc2ccc(OCc3ccccc3)cc2O1 (stereo not drawn) [Example 53]", "125 to 127 °C"],
  ["c1ccc(COCCCNCC2CCc3ccc(OCc4ccccc4)cc3O2)cc1 (stereo not drawn) (as salt: hydrochloride) [Example 11]", "138 to 139 °C"],
  ["OCCCNCC1CCc2ccc(OCC3CCCCC3)cc2O1 (stereo not drawn) (as salt: hydrochloride) [Example 13]", "159 to 160 °C"],
  ["OCCCNCC1CCc2ccc(OCc3ccccc3Cl)cc2O1 (stereo not drawn) (as salt: hydrochloride) [Example 14]", "114 to 115 °C"],
  ["O=[N+]([O-])c1ccc(OCCCNCC2CCc3ccc(OCc4ccccc4)cc3O2)cc1 (stereo not drawn) [Example 32]", "118 to 120 °C"],
  ["Clc1cccc(OCCCNCC2CCc3ccc(OCc4ccccc4)cc3O2)c1 (stereo not drawn) [Example 34]", "110 to 116 °C"]
]}

---

target: human cloned 5-HT6 receptors (Homo sapiens, UniProt P50406)
Construct: expressed in transfected cells; host or cells: HeLa cells (membrane preparation)
assay notes: 5-HT6 binding affinity ([3H]-LSD displacement, membranes of Hela cells expressing human cloned 5-HT6 receptors)
measurement conditions: [3H]-LSD 3.0 nM, Hela cell membranes, 120 min at room temperature; read-out: 5-HT6 Binding Ki
pKi: −log10 of the molar value. Where a name gives a salt, the structure may show the parent alone.

{"columns": ["compound", "pKi"],
 "data": [
  ["CN(CCCO)CC1CCc2ccc(OCc3ccccc3)cc2O1 (centres unmarked)", 7.57],
  ["OCCCNCCC1CCc2ccc(OCc3ccccc3)cc2O1 (centres unmarked) [Example 42, Hydrochloride]", 6.97],
  ["OCCCNCC1Cc2ccc(OCc3ccccc3)cc2O1 (centres unmarked)", 6.47],
  ["O=[N+]([O-])c1ccc(OCCCNCC2CCc3ccc(OCc4ccccc4)cc3O2)cc1 (centres unmarked)", 6.80],
  ["O=c1ccc2ccc(OCCCNCC3CCc4cc(Cl)c(OCc5ccccc5)cc4O3)cc2o1 (centres unmarked)", 7.37],
  ["OCCNC[C@H]1CCc2ccc(OCc3ccccc3)cc2O1", 8.00],
  ["OCCNCC1CCc2ccc(OCc3ccccc3)cc2O1 (centres unmarked)", 7.92],
  ["OCCCNCC1CCc2ccc(OCCc3ccccc3)cc2O1 (centres unmarked) [Example 22, Hydrochloride]", 7.00]
]}

---

target: human cloned 5-HT6 receptors (Homo sapiens, UniProt P50406)
Construct: expressed in transfected cells; host or cells: HeLa cells (membrane preparation)
assay notes: 5-HT6 binding affinity ([3H]-LSD displacement, membranes of Hela cells expressing human cloned 5-HT6 receptors)
measurement conditions: [3H]-LSD 3.0 nM, Hela cell membranes, 120 min at room temperature; read-out: 5-HT6 Binding Ki
Below, each entry is listed alongside its reported log10 of Ki.
measurement label: log10 of Ki (log10 of the value in nM)

{"columns": ["molecule", "endpoint value"],
 "data": [
  ["OC[C@H](CSCc1ccccc1)NCC1CCc2ccc(OCc3ccccc3)cc2O1 (stereo partly shown)", 2.48],
  ["COCCCNC[C@H]1CCc2ccc(OCc3ccccc3)cc2O1", 1.40],
  ["OCCCNCC1CCc2ccc(OCc3ccccc3Cl)cc2O1 (stereo not shown)", 1.58],
  ["OCCCNCc1cc2ccc(OCc3ccccc3)cc2o1", 3.07],
  ["c1ccc(COCCCNCC2CCc3ccc(OCc4ccccc4)cc3O2)cc1 (stereo not shown)", 1.43],
  ["CCCCNCC1CCc2ccc(OCc3ccccc3)cc2O1 (stereo not shown)", 1.63],
  ["OCCCNC[C@H]1CCc2ccc(OCc3ccccc3)cc2O1", 0.95],
  ["OCCCNCC1CCc2cc(Cl)c(OCc3ccccc3)cc2O1 (stereo not shown)", 1.53],
  ["O=c1ccc2ccc(OCCCNCC3CCc4ccc(OCc5ccccc5)cc4O3)cc2o1 (stereo not shown)", 1.46],
  ["OCCCNCC1CCc2ccc(OCC3CCCCC3)cc2O1 (stereo not shown)", 2.55]
]}

---

target: human cloned 5-HT6 receptors (Homo sapiens, UniProt P50406)
Construct: expressed in transfected cells; host or cells: HeLa cells (membrane preparation)
assay notes: 5-HT6 binding affinity ([3H]-LSD displacement, membranes of Hela cells expressing human cloned 5-HT6 receptors)
measurement conditions: [3H]-LSD 3.0 nM, Hela cell membranes, 120 min at room temperature; read-out: 5-HT6 Binding Ki
pKi: −log10 of the molar value. Structures can show the parent of a compound that is named as a salt.
I would appreciate it if you labelled entries t when pKi is 7 or higher, otherwise f.

{"columns": ["compound", "group"],
 "data": [
  ["c1ccc(CCCNCC2CCc3ccc(OCc4ccccc4)cc3O2)cc1 (stereo not drawn)", "t"],
  ["NCC1CCc2ccc(OCc3ccccc3)cc2O1 (stereo not drawn) [Example 6, Hydrochloride]", "t"],
  ["c1ccc(CNCc2cc3ccc(OCc4ccccc4)cc3o2)cc1", "f"],
  ["Clc1cccc(OCCCNCC2CCc3ccc(OCc4ccccc4)cc3O2)c1 (stereo not drawn)", "f"],
  ["OCCNCC1Cc2ccc(OCc3ccccc3)cc2O1 (stereo not drawn) [Example 51, Hydrochloride]", "f"],
  ["CCCCOCCCNCC1CCc2ccc(OCc3ccccc3)cc2O1 (stereo not drawn)", "t"],
  ["c1ccc(CNCC2CCc3ccc(OCc4ccccc4)cc3O2)cc1 (stereo not drawn) [Example 7, Hydrochloride]", "t"],
  ["OCCCNCC1CCc2ccc(Oc3ccccc3)cc2O1 (stereo not drawn)", "f"]
]}
